# tgt: HIV-2 reverse transcriptase (Human immunodeficiency virus 2)
# test: Evaluated for inhibition of HIV-2 reverse transcriptase
result-type: IC50 (µM)

CSc1ccc(NC(=O)CCCCC(=O)Nc2ccc(SC)cc2C(=O)O)c(C(=O)O)c1: 6.9
O=C(CCCCC(=O)Nc1ccc(Br)cc1C(=O)O)Nc1ccc(Br)cc1C(=O)O: 1.7

I = O=C(CCCC(=O)Nc1ccc(Cl)cc1C(=O)O)Nc1ccc(Cl)cc1C(=O)O
II = O=C(CCCCC(=O)Nc1ccc(Cl)cc1C(=O)O)Nc1ccc(Cl)cc1C(=O)O
III = COc1ccc(NC(=O)CCCCC(=O)Nc2ccc(OC)cc2C(=O)O)c(C(=O)O)c1
INPUT: Arrange these 3 molecules in increasing order of IC50. State the ranking by listing the labels in the requested order.
OUTPUT: II, III, I
